As shown below, each of these binders has a reported Meas. ratio (noFAD/FAD) value.
- Target or test system: Diaphorase
- Test protocol: peptide array, 1 uM diaphorase, measured binding without FAD / with FAD
Reply with just the number.

Below, 5 binders whose answers are already recorded.
NRKFYWNAGGSG	2.1
YRGAGKNKGGSG	1.49
YRWGAKHYGGSG	2.06
AFNVWQYFEGGSG	0.73
FLQFLGGSG	0.87

I have this binder here, WRSVYVPNGGSG , and I need its recorded Meas. ratio (noFAD/FAD).
2.35

I have this binder here, SGVLQFFGGSG , and I need its recorded Meas. ratio (noFAD/FAD).
0.7

I have this binder here, YRRPWKFRDGSG , and I need its recorded Meas. ratio (noFAD/FAD).
1.74

I have this binder here, YRRFPYFPGGSG , and I need its recorded Meas. ratio (noFAD/FAD).
1.6

I have this binder here, AWVELEYQYVFEG , and I need its recorded Meas. ratio (noFAD/FAD).
0.74

I have this binder here, RVLPYHGWKWFSG , and I need its recorded Meas. ratio (noFAD/FAD).
2.45

I have this binder here, WRLNPLQFGGSG , and I need its recorded Meas. ratio (noFAD/FAD).
2.54

I have this binder here, WRPFWKNLGGSG , and I need its recorded Meas. ratio (noFAD/FAD).
2.18

I have this binder here, PVDFGYQLKVSGS , and I need its recorded Meas. ratio (noFAD/FAD).
0.66

I have this binder here, FNKVLEYKWLFEG , and I need its recorded Meas. ratio (noFAD/FAD).
0.73

I have this binder here, YRYGWQKYGGSG , and I need its recorded Meas. ratio (noFAD/FAD).
2.43

I have this binder here, WHLLGWVGYGGSG , and I need its recorded Meas. ratio (noFAD/FAD).
0.7

I have this binder here, DYFEGQLNHLGGS , and I need its recorded Meas. ratio (noFAD/FAD).
0.75

I have this binder here, YQRHQNVFAKSGG , and I need its recorded Meas. ratio (noFAD/FAD).
2.56

I have this binder here, RQRYPKVSGGSG , and I need its recorded Meas. ratio (noFAD/FAD).
1.71

I have this binder here, EGFGYLFAHVGGS , and I need its recorded Meas. ratio (noFAD/FAD).
0.78

I have this binder here, DANLFGYFKDGGS , and I need its recorded Meas. ratio (noFAD/FAD).
0.7

I have this binder here, PVPWRHVNYAHSG , and I need its recorded Meas. ratio (noFAD/FAD).
0.69

I have this binder here, PRFNWKPYGGSG , and I need its recorded Meas. ratio (noFAD/FAD).
2.44
